Form field: Proportion of chimeric antibody positive cells to B cells (%) at 100 nM (one value per entry).
TESTED ON: T1, cynomolgus monkey CD19 on peripheral blood B cells (cynomolgus monkey (Macaca fascicularis), UniProt A0A2K5W8L9 20-557)
T1 construct: whole, on cells; also called cynomolgus monkey B cells
T1 sequence: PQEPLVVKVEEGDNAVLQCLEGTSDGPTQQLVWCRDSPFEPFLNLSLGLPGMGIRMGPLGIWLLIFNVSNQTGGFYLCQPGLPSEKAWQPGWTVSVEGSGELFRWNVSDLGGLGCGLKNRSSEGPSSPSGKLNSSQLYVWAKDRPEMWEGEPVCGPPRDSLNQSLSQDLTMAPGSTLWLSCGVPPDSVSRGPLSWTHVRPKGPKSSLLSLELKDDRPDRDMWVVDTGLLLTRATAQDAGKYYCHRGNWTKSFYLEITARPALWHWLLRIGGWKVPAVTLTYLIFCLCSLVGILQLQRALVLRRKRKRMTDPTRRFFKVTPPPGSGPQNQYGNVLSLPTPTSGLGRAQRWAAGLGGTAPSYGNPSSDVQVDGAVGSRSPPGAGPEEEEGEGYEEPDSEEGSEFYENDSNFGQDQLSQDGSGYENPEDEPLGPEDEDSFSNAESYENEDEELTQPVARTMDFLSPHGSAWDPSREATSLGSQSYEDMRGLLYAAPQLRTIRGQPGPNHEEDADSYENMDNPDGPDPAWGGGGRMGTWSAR
TEST DESCRIPTION: FACS, cynomolgus PBMC, CD20+ B cells
ENDPOINT LABEL: Proportion of chimeric antibody positive cells to B cells (%) at 100 nM

# BINDER, REPORTED RESULT
records = [
    ("F3.83.9 (antibody, human IgG1, V domains shown, human-murine chimeric antibody, human IgG1) VH: DVQLQESGPGLVKPSQSLSLTCSVTGYSITSGYYWNWIRQFPGNKLEWMGYISYDGGNNYNPSLKNRISITRDTSKNQFFLKLNSVTTEDTATYFCAREDYSNWYFDVWGTGTTVTVSS VL: DIVLTQSPASLAVSLGQRATISCRASQSVSKSSYSYMHWYQQKPGQSPKLLIKYASILKSGVPARFSGSGSGTDFTLNIHPVEEEDTATYYCQHSWEIPWTFGGGTKLEIK", "99%"),
    ("F4.49.11 (antibody, human IgG1, V domains shown, human-murine chimeric antibody, human IgG1) VH: DVQLRASGPGLVKPSQSLSLTCSVTGYSITSGYYWNWIRQFPGNKLEWMGCISYDGTNNYNPSLKNRISFTRDTSKNQFFLNLNSVTTEDSATYYCARRVYYRYDGVVDYWGQGTSVTVSS VL: ENVLTQSPAIMSASPGEKVTMTCSASSSVSYIHWYQQKSSTAPKLWIYDTSKLASGVPGRFSGSRSRNSYSLTISSMEAEDVATYYCFQGSGYPLTFGSGTKLEIK", "98%"),
    ("F3.124.7 (antibody, human IgG1, V domains shown, human-murine chimeric antibody, human IgG1) VH: EVQLQQSGPVLVKPGASVKMSCKASGYTFTDYYMNWVKQRHGKSLEWIGISNPYNGGTSYNQKFKDKATLTVDKSSSTAYMELNSLTSEDSAVYYCAREGGTAQPTSGMDYWGQGTSVTVSS VL: NIMMTQSPSSLAVSAGEKVTMSCKSSQSVLYSSNQKNYLAWYQQKPGQSPKLLIYWASTRESGVPDRFTGSGSGTDFTLTISSVQPEDPAVYYCHQYRSSYTFGGGTKLEIK", "92%"),
    ("F3.40.14 (antibody, human IgG1, V domains shown, human-murine chimeric antibody, human IgG1) VH: QAQLQQSGPELVKPGASVKISCKASGYAFSGSWMNWVQQRPGKGLEWIGRIYPGDGDTYYSGKFKDKAILTADTSSSTAYMQLSSLTSEDSAVYFCAQLRSRYVMDYWGQGASVTVSS VL: DIVLTQSPASLAVSLGQRATISCRASESVSIHGTHLMHWYQQKPGQPPRLLIYAASNLESGVPARFSGSGSETDFTLNIHPVEEEDAATYFCQQGIDDPYTFGGGTKLEIK", "5%"),
    ("F3.114.12 (antibody, human IgG1, V domains shown, human-murine chimeric antibody, human IgG1) VH: DVQLQESGPGLVKPSQSLSLTCSVTGYSITSGYDWNWIRQFPGNKLEWMGYISYDGKNNYNPSLRNRISITRDTSKNQFFLKLNSVTTEDTATYYCARRDLRGYFDVWGTGTTVTVSS VL: DIVLTQSPATLSVTPGDRVSLSCRASQSISNYLHWYQQKSHESPRLLIKYASLSISGIPSRFSGSGSGTDFTLSINSVETEDFGVYFCQQSNSWPLTFGAGTKLELK", "99%"),
    ("F3.5.1 (antibody, human IgG1, V domains shown, human-murine chimeric antibody, human IgG1) VH: QAQLQQSGPELVKPGASVKISCKASGYAFSGSWMNWVQQRPGKGLEWIGRIYPGDGDTYYNGKFKDKAILTADKSSSTAYMQLSSLTSEDSAVYFCAQLRYRYVMDYWGQGTSVTVSS VL: DIVLTQSPASLAVSLGQRATISCRASESVSIHGSHLMHWYQQKPGQPPRLLIYAASNLESGVPARFSGSGSETDFTLNIHPVEEEDAATYFCQQGIKDPYTFGGGTKLEIK", "23%"),
    ("F3.133.14 (antibody, human IgG1, V domains shown, human-murine chimeric antibody, human IgG1) VH: QVQLQQPGAELVMPGASVKLSCKASGYTFTNYWMHWVKQRPGQGLEWIGEIDPSDYYANYNQKFKGKATLTVDKSSSTAYMQLSSLTSEDSAVYYCARSHYYANSYNYWGQGTTLTVSS VL: EIELTQSPTTMAASPGEKITITCSASSSISSDYLHWYQQKPGFSPKLLIYRTSNLASGLPARFSGSGSGTSYSLTIGTMEAEDVATYYCQQGSSVPRMLTFGAGTKLELK", "7%"),
    ("F4.22.6 (antibody, human IgG1, V domains shown, human-murine chimeric antibody, human IgG1) VH: QVQLQQSGPELVKPGASVKISCKASGYAFSSFWMNWVKQRPGQGLEWIGRIYPGDGDTNYNGKFKGKATLTADKSSTTAYMHLSSLTSVDSAVYFCTRSVITAVVDWYFDVWGAGTTVTVSS VL: QIVLSQSPAILSASPGEKVTLTCRASSSVNFMHWYQQKPGSSPKPWIYATSNLASGAPARFSGSGSGTSYSLTISRVEAEDAAAYYCQQWSSYPIFTFGSGTKLEIK", "12%"),
    ("F5.11.2 (antibody, human IgG1, V domains shown, human-murine chimeric antibody, human IgG1) VH: EVQLVESGGDLVKPGGSLKLSCAASGFTFSSYGMSWVRQTPDKRLEWVATISHGGSYTHYPDSVKGRFTISRDNAKNTLYLQMNSLKSEDTAMYYCVRLPITTVEAPYFFDYWGQGTTLTVSS VL: DIQMTQTTSSLSASLGDRVTISCRASQDIRNYLNWYQQKPDGTVKLLIYYTSILHSGVPSRFSGSGSGTDYSLTINNLEQEDVATYFCQQGNTLYTFGGGTEVELR", "76%"),
    ("F3.64.4 (antibody, human IgG1, V domains shown, human-murine chimeric antibody, human IgG1) VH: EVQLQQSGPELVKPGASVKISCKASGYTFTDYHINWVKQSHGKSPEWIGDINPNNGGTTYNQKFKDKATLTVDKSSSTAFMELRSLTSEDSAVYYCARFITTVVAWYFDVWGTGTTVTVSS VL: DIQMTQSPASLSVSVGETVTITCRASENIYSNLAWYQQKQGKSPQLLVYAATNLADGVPSRFSGSGSGTQYSLKINSLQSEDFGNYYCQRFWDTPRTFGGGTKLEIK", "9%"),
]
